Biological target: glycogen phosphorylase α (GP-α) (Oryctolagus cuniculus)
Sequence (P00489 2-843 limits assumed): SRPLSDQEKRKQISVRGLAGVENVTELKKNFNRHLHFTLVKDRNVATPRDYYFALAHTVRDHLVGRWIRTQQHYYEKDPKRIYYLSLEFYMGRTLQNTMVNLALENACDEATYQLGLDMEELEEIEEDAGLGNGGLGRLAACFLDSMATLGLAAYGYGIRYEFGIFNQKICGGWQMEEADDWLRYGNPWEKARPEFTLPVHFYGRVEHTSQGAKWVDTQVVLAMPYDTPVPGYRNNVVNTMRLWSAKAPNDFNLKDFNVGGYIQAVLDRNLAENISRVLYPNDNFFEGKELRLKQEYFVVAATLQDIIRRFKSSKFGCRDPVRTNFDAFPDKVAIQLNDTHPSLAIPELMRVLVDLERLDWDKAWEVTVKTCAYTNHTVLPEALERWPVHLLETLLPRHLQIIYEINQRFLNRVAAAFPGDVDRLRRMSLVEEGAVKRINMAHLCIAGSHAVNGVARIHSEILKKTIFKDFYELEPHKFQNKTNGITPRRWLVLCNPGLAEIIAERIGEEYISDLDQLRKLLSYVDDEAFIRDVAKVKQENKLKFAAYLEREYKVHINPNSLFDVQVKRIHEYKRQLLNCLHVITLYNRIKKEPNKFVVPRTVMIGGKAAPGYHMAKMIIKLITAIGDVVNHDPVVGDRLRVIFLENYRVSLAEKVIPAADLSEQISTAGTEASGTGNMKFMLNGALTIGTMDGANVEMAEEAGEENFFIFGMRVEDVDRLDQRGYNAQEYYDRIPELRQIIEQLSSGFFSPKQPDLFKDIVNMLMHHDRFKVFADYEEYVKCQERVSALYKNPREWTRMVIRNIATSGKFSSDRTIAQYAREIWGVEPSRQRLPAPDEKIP
Assay: GP-α inhibition assay
Type: biochemical
Conditions: isolated compounds; read-out: Glycogen phosphorylase α IC50
assayMetric: pIC50
Expect pIC50 as a plain number equal to -log10 of the molar concentration.

O=C(O)c1ccc(O)cc1 [Compound 4, Para-hydroxybenzoic acid]
3.45
O=C(O)c1ccc(O)c(O)c1
3.53

Now take the following compound into account.
Return value of pIC50 for input O=c1cc(-c2ccc(O)c(O)c2)oc2cc(O)cc(O)c12 , no commentary.
4.35
